- experiment.notes: inhibitors of mutant huntingtin aggregation, primary screen, imaging, exon1htt(103Q)mCFP cells, high-content imaging (AID 483);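 further: compound exposure lasted 3 days before fixation; percent of the per-plate median nuclei count of sample wells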
- condition.notes: exon1htt(103Q)mCFP cell line, aggregate imaging, at 2 µM; measured here: cell count, toxicity
Assign nuclei count to each entry below.
Lab book: enter the figure in %, no units written.

Entry under review: Clc1cc2c(c(Cn3cnc4ccccc43)c1)OCOC2 . Reported nuclei count? 77.2

Entry under review: CCN(CCCNC(=O)CC1Oc2ccc(C)cc2NC1=O)Cc1ccccc1 (centres undefined) . Reported nuclei count? 102

Entry under review: CCN(CC)c1nc2nonc2nc1N(CC)CC . Reported nuclei count? 100

Entry under review: CC(=O)c1c(C)[nH]c(C(=O)Nc2c(C)n(C)n(-c3ccccc3)c2=O)c1C . Reported nuclei count? 112

Entry under review: COc1ccc(S(=O)(=O)N2CCCC(C(=O)NCc3ccccn3)C2)cc1 (centres undefined) . Reported nuclei count? 72.3

Entry under review: CCCN1CCN(CCCNC(=O)C2CCCN(c3nc4ccc(OCC)cc4s3)C2)CC1 (centres undefined) . Reported nuclei count? 121

Entry under review: Oc1ccc(Cl)cc1-c1cc(-c2ccccc2)n[nH]1 . Reported nuclei count? 81.5

Entry under review: O=C(Nc1ccccc1)N(O)c1ccc(Cl)cc1 . Reported nuclei count? 90.3

Entry under review: Cc1ccc(-n2nnnc2SCC(=O)Nc2c(C)n(C)n(-c3ccccc3)c2=O)cc1 . Reported nuclei count? 91.4

Entry under review: Cc1nc2ccccc2c2c1C(=O)N(CCC1=CCCCC1)C2=O . Reported nuclei count? 74.1

Entry under review: Cn1c(Cl)nc2ccccc21 . Reported nuclei count? 93.2

Entry under review: O=C(NCCC1=CCCCC1)C1CC(=O)N(C2CCCCCC2)C1 (centres undefined) . Reported nuclei count? 45.9

Entry under review: CCOc1ccccc1C(=O)NC(C)c1ccc2c(c1)OCO2 (centres undefined) . Reported nuclei count? 122

Entry under review: Cc1csc(NC(=O)CCn2c(=O)oc3ccccc32)n1 . Reported nuclei count? 79.1

Entry under review: CCCc1ccc(S(=O)(=O)NCCc2ccncc2)cc1 . Reported nuclei count? 109

Entry under review: O=C(C1CC1)N1CCc2cc(Br)cc(S(=O)(=O)N3CCOCC3)c21 . Reported nuclei count? 106

Entry under review: CC(=O)Nc1sc2c(c1CN1CCN(c3ccccn3)CC1)CCCC2 . Reported nuclei count? 95.6

Entry under review: Cc1cc(C)c2c(C)nn(C3CCCCC3)c2n1 . Reported nuclei count? 79.1

Entry under review: O=c1ccc(S(=O)(=O)N2CCC(Cc3ccccc3)CC2)c[nH]1 . Reported nuclei count? 103

Entry under review: Cc1ccc(S(=O)(=O)N(CC(=O)NCc2ccco2)Cc2ccccc2F)cc1 . Reported nuclei count? 92.3

Entry under review: CN(C)c1ccc(-c2nn3c(-c4ccc(Cl)cc4Cl)nnc3s2)cc1 . Reported nuclei count? 98.2

Entry under review: Cc1oc(-c2cccc(Cl)c2)nc1CN1CCC(C(=O)N2CCN(c3ccccc3F)CC2)CC1 . Reported nuclei count? 77.7

Entry under review: CC(C)(C)SCCNC(=O)CN1C(=O)c2ccccc2S1(=O)=O . Reported nuclei count? 97.6

Entry under review: CCc1nc2sc3ccccc3c(=O)c2c(=O)n1Cc1ccco1 . Reported nuclei count? 87.2

---

- experiment.notes: inhibitors of TNFa-induced NFkB p65 translocation, primary screen, imaging, HUVEC, MLSMR starter and 10KST1 sets (AID 438);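 further: compound added about 3h40 before a 20 min TNFalpha stimulation; signal is the nuclear over cytoplasmic p65 intensity ratio per well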
- condition.notes: HUVEC TNFa-induced p65 nuclear translocation; at 2 µM, stronger effect = higher value, 0% TNFa-plus-vehicle, 100% no-TNFa wells
Assign inhibition to each entry below.
Lab book: enter the figure in %, no units written.

Entry under review: Cc1cccc2cc(CN(CCCO)C(=O)Nc3ccc(Cl)cc3)c(=O)[nH]c12 . Reported inhibition? 5.6

Entry under review: COc1cccc(C2C(C(=O)c3sc(C)nc3C)=C(O)C(=O)N2CCN2CCOCC2)c1OC (centres undefined) . Reported inhibition? -3.3

Entry under review: CC(C)C(NC(=O)OCc1ccccc1)C(=O)OCC(=O)NCc1ccco1 (centres undefined) . Reported inhibition? -2.9

Entry under review: CCCC1Cc2c(sc3nc(SC)nc(N)c23)CO1 (centres undefined) . Reported inhibition? -14.7

Entry under review: c1ccc2c(c1)CNC1(CCCCC1)C2 . Reported inhibition? -3.4

Entry under review: O=C1CC(Cc2ccccc2)C(=O)N1CCCn1ccnc1 (centres undefined) . Reported inhibition? -4.9

Entry under review: O=C(NCc1cccnc1)NC(C(F)(F)F)C(F)(F)F . Reported inhibition? -1.2

Entry under review: COC(=O)c1cc(-c2ccccc2)sc1NC(=O)c1cc(C)on1 . Reported inhibition? -2.2

Entry under review: N#Cc1nc(COc2ccc(Cl)cc2)oc1N1CCN(Cc2ccccc2)CC1 . Reported inhibition? -3

Entry under review: Cc1nn(CC(=O)NCCN2CCOCC2)c(=O)c2ccccc12 . Reported inhibition? 4.4

Entry under review: CS(=O)(=O)N1CCC(C(=O)NCCC2=CCCCC2)CC1 . Reported inhibition? 4.2

Entry under review: COc1ccc(OC)c(Nc2ncnc3c2cnn3-c2ccccc2)c1 . Reported inhibition? -6.5

Entry under review: O=C(COC(=O)C1CC1)c1c[nH]c2ccccc12 . Reported inhibition? 4.3

Entry under review: c1cncc(-c2nnc3n2N=C(c2cccs2)CS3)c1 . Reported inhibition? 4.8

Entry under review: O=C(NCc1ccco1)c1cccn2c(=O)c3sccc3nc12 . Reported inhibition? -1.9

Entry under review: CCOC(=O)N1CCN(c2c(N3CCc4ccccc4C3)c(=O)c2=O)CC1 . Reported inhibition? 1.2

Entry under review: CCOC(=O)c1oc2ccccc2c1CSc1nnnn1-c1ccc(C)cc1 . Reported inhibition? -3.4

Entry under review: N#CCSc1nc2c(c(=O)n1Cc1ccco1)C1(CCCC1)Cc1ccccc1-2 . Reported inhibition? -2.6

Entry under review: c1ccc(-c2cc(N3CCCCC3)ncn2)cc1 . Reported inhibition? 0.7

Entry under review: CCCOc1ccc(NC2=CC(=O)CC(C)(C)C2)cc1 . Reported inhibition? 3.8

Entry under review: O=C(CSc1ncccn1)NCc1ccccc1 . Reported inhibition? 2.5

Entry under review: Cc1cc(=O)oc2c(CN3CCCCC3)c(O)c(Cl)cc12 . Reported inhibition? -7.3

Entry under review: Cc1ccc(S(=O)(=O)N2CCN(CCO)CC2)cc1-c1nnc2c3ccccc3c(C)nn12 . Reported inhibition? -0.4

Entry under review: CC(C)Cc1[nH]c(=O)c(C#N)c2c1COC(C)(C)C2 . Reported inhibition? -11.1

---

- experiment.notes: inhibitors of Chlamydomonas gravitaxis, primary screen, whole organism, Chlamydomonas reinhardtii, WT vs cilia-less mutant, absorbance, 96-well (AID 463189);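 further: 0% = wild type cc124 cells in DMSO and 100% = ciliumless bld1 mutant cells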
- condition.notes: OD600 absorbance, 2 days, at 10 µM, stronger effect = higher value
Assign inhibition to each entry below.
Lab book: enter the figure in %, no units written.

Entry under review: CCOC(=O)c1[nH]c2ccc(OC)cc2c1NC(=O)CCN1CCc2ccccc2C1 . Reported inhibition? -5.17

Entry under review: CN(CCCCCC(=O)/C=N/O)Cc1ccccc1 . Reported inhibition? 23.8

Entry under review: CCOC(=O)CNC(=O)CNC(=O)c1ccc(OC)cc1 . Reported inhibition? 23.5

Entry under review: CC1(C)Cc2c(c(-c3ccco3)[nH]c(=O)c2C#N)CS1 . Reported inhibition? 3.67

Entry under review: O=C1C=C(O)CC(c2ccc(Cl)c(Cl)c2)C1 (stereo unspecified) . Reported inhibition? -8.94

Entry under review: CCOC(=O)c1[nH]c2ccccc2c1NC(=O)CN(C)C . Reported inhibition? -6.18

---

Assign inhibition to each entry below.
- experiment.notes: inhibitors of TNFa-induced NFkB p65 translocation, primary screen, imaging, HUVEC, MLSMR starter and 10KST1 sets (AID 438);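 further: compound added about 3h40 before a 20 min TNFalpha stimulation; signal is the nuclear over cytoplasmic p65 intensity ratio per well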
- condition.notes: HUVEC TNFa-induced p65 nuclear translocation; at 2 µM, stronger effect = higher value, 0% TNFa-plus-vehicle, 100% no-TNFa wells
Activity calls are given as the source filed them.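 How the source made its calls: active means inhibition above 20% together with a positive visual image hit; inconclusive means visual image hit but inhibition not above 20%; inactive means no visual image hit.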

Entry under review: CCc1ccc(CN(C)CCc2ccccn2)cc1 . Reported inhibition? -7.7% (inactive)

Entry under review: COc1ccccc1NC(=O)c1c(C)cc(=O)oc1C . Reported inhibition? -14.3% (inactive)

Entry under review: Cc1ccc(C)c2[nH]c(=O)c(CN(CCN3CCCC3)C(=O)Nc3cccc(Cl)c3)cc12 . Reported inhibition? -4.7% (inactive)

Entry under review: CCOC(=O)c1c(C)n(OCc2ccccc2)c2ccc3c(no[n+]3[O-])c12 . Reported inhibition? 4% (inactive)

Entry under review: O=C(Nc1cccc2ccccc12)N1CCN(c2ccccc2)CC1 . Reported inhibition? -6.4% (inactive)

Entry under review: CCSc1oc(-c2cccs2)nc1S(=O)(=O)c1ccccc1 . Reported inhibition? -6.7% (inactive)

Entry under review: CCC(=O)Nc1ccc2nc(SCC(=O)N3CCCC3)sc2c1 . Reported inhibition? -23.3% (inactive)

Entry under review: CC(=O)c1ccccc1Oc1nc(CN2CCOCC2)nc2scc(-c3cccs3)c12 . Reported inhibition? -5.7% (inactive)

Entry under review: Cn1c(=O)[nH]c(=O)c2c1nc(Br)n2CCSc1nnnn1-c1ccccc1 . Reported inhibition? 0.9% (inactive)

Entry under review: CCn1c(SCC(=O)N2CCOCC2)nc2sc3c(c2c1=O)CCCC3 . Reported inhibition? -9.8% (inactive)

Entry under review: CCOc1ccc(C2C=C(c3ccccc3)Nc3ncnn32)cc1 (stereo unspecified) . Reported inhibition? -1.1% (inactive)
